Read-out: Human Leukocyte Antigen - DR isotype (HLADR), HLA-DRA (gene 3122)
Assay: BSK_BE3C_HLADR: BioMAP Diversity Plus: BE3C Assay for Human Leukocyte Antigen - DR isotype (HLADR) Biomarker Activity (AID 2283032)
Settings: primary human bronchial epithelial cells; actives raise or lower the signal
Calls of active or inactive are those of the source. The calls were made as follows: active = hit-call score of the fitted dose curve at least 0.9, where 1 is the maximum; inactive = score below 0.9.
recorded.endpoint: AC50

# compound, AC50
data = [
    ("CCCN(CCOc1c(Cl)cc(Cl)cc1Cl)C(=O)n1ccnc1", "29.3 µM (active)"),
    ("CC1(c2ccc(Oc3ccccc3)cc2)OC(=O)N(Nc2ccccc2)C1=O (stereo unspecified)", "inactive"),
    ("O=C(Nc1ccccc1)Nc1cnns1", "inactive"),
    ("CNC(=O)Oc1cccc(N=CN(C)C)c1", "26.6 µM (active)"),
    ("Clc1ccccc1-c1nnc(-c2ccccc2Cl)nn1", "inactive"),
]

QUERY: In one line, give reported AC50 of the entry COP(=S)(OC)Oc1ccc(SC)c(C)c1 .
RESULT: inactive

These measurements were taken from PubChem BioAssay (EPA / NIEHS).
